The measured values listed here are drawn from patent US7973162B2.

Property: pEC50; scope: individual compounds
target: M2 muscarinic receptor (Homo sapiens); assay: Functional mobilization of intracellular calcium (FLIPR), M2-CHO cells; conditions: CHO cells expressing M2, calcium mobilization
pEC50: −log10 of the molar value.

Solved cases below.
In [3]: df
Out[3]:
                                   compound                           study_target  measured_endpoint   assay_value
0  O=C1C[C@@H]2CC3(CCN(C4CCCCC4)CC3)c3ccccc3[C@@H]2N1 [Compound 19]  M2 muscarinic receptor (Homo sapiens)              pEC50  5.30 to 5.70
1  c1ccc2c(c1)C1OCCC1CC21CCN(CC2CCCCC2)CC1 (stereo not shown)  M2 muscarinic receptor (Homo sapiens)              pEC50        < 5.30
2  O=C1C[C@@H]2[C@H](N1)c1ccccc1C21CCN(C2C[C@H]3CC[C@@H]2C3)CC1 (stereo partly shown)  M2 muscarinic receptor (Homo sapiens)              pEC50  5.30 to 5.70
3  CN1C(=O)C[C@@H]2CC3(CCN(C4CC5CCC(C5)C4)CC3)c3ccccc3[C@@H]21 (stereo partly shown) [Compound 3]  M2 muscarinic receptor (Homo sapiens)              pEC50        > 5.70
4  O=C1CC2CC3(CCN(C4CCCCC4)CC3)c3ccccc3C2O1 (stereo not shown)  M2 muscarinic receptor (Homo sapiens)              pEC50        < 5.30

IN: Dear colleague, please send me the reported pEC50 for "CCOC(=O)N1CCC(N2CCC3(CC2)C[C@H]2CC(=O)N(CCOC)[C@H]2c2ccccc23)CC1" when you can.
OUT: > 5.70

IN: Using the record for "O=C1C[C@@H]2[C@H](N1)c1ccccc1C21CCN(C2CCCCC2)CC1" , state its measured pEC50.
OUT: 5.30 to 5.70

IN: Report measured pEC50; entry is O=C1CC2CC3(CCN(CC4CCCCC4)CC3)c3ccccc3C2O1 (stereo not shown)
OUT: < 5.30

IN: Read off the recorded pEC50 for "COCCN1C(=O)C[C@@H]2CC3(CCN(C4CCCCC4)CC3)c3ccccc3[C@@H]21"
OUT: < 5.30

IN: Using the record for c1ccc2c(c1)C1OCCC1CC21CCN(C2CCCCC2)CC1 (stereo not shown) , state its measured pEC50.
OUT: < 5.30

IN: // fetch pEC50 given entry "O=C1C[C@@H]2CC3(CCN(C[C@@H]4C[C@H]5C=C[C@H]4C5)CC3)c3ccccc3[C@@H]2N1"
OUT: > 5.70

###

molecular target: M3 muscarinic receptor (Homo sapiens, UniProt P20309); construct: expressed in transfected cells; host or cells: CHO (M3-CHO); test: Functional mobilization of intracellular calcium (FLIPR), M3-CHO cells; assay type: cell-based; settings: 100% efficacy = maximum response obtained with the Carbachol control
Sequence (P20309 whole entry): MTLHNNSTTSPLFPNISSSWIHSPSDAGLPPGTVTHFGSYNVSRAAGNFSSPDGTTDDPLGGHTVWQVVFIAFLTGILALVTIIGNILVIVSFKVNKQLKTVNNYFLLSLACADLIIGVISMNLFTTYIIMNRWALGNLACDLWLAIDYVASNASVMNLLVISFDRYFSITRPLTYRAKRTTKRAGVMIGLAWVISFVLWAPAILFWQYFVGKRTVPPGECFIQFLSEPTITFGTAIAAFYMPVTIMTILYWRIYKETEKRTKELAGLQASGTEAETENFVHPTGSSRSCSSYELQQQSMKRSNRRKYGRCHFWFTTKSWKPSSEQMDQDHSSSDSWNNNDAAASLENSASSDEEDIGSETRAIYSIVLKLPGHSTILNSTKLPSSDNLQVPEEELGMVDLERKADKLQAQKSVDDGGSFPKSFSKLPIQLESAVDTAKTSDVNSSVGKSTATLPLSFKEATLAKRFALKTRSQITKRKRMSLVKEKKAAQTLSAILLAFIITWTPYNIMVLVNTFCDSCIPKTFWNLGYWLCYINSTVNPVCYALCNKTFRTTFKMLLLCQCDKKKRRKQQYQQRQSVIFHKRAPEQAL
compounds and their reported Emax

The examples below pair each entry with its known result.
In [3]: df
Out[3]:
                                   compound  assay_value
0  O=C1C[C@@H]2[C@H](N1)c1ccccc1C21CCN(C[C@H]2C[C@@H]3CC[C@@H]2C3)CC1        < 25%
1  O=C1CC2CC3(CCN(C4CCCCC4)CC3)c3ccccc3C2O1 (stereo not shown)        < 25%

Next up:
IN: Please report Emax for the following compound: "COCCN1C(=O)C[C@@H]2CC3(CCN(CC4CCCCC4)CC3)c3ccccc3[C@@H]21"
OUT: < 25%

###

The entries below are paired with their reported EC50.
target: UniProt P08173; test: Functional mobilization of intracellular calcium (FLIPR), M4-CHO cells; details: CHO cells expressing M4, calcium mobilization
Sequence (P08173 whole entry): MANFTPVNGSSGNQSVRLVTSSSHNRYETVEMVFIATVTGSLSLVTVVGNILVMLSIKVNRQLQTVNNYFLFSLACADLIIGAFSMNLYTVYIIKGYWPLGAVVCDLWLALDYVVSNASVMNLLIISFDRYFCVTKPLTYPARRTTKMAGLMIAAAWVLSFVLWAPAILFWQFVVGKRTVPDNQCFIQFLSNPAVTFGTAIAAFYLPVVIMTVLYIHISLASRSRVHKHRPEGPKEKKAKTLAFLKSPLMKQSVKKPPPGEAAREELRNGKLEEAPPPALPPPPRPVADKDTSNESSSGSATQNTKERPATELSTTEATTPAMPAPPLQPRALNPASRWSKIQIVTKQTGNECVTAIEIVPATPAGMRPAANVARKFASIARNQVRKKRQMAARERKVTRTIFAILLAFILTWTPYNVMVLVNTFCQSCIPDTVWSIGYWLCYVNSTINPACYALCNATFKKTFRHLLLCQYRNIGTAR

>>> print(df.to_string())
                                   compound  measured_endpoint  assay_value
0  CCOC(=O)N1CCC(N2CCC3(CC2)C[C@H]2CC(=O)N[C@H]2c2ccccc23)CC1 [Compound 9]               EC50    < 2000 nM
1  CCOC(=O)N1CCC(N2CCC3(CC2)C[C@H]2CC(=O)N(C)[C@H]2c2ccccc23)CC1               EC50    < 2000 nM
2  CCOC(=O)N1CCC(N2CCC3(CC2)C[C@H]2CC(=O)N(CCOC)[C@H]2c2ccccc23)CC1               EC50    < 2000 nM

IN: Write down measured EC50 (UniProt P08173) for this compound. O=C1C[C@@H]2CC3(CCN(C4CC5CCC(C5)C4)CC3)c3ccccc3[C@@H]2N1 (stereo partly shown)
OUT: < 2000 nM

IN: // fetch EC50; item: c1ccc2c(c1)C1OCCC1CC21CCN(C2CCCCCC2)CC1 (stereo not shown) ; system: UniProt P08173
OUT: < 2000 nM

IN: # return EC50 for CN1C(=O)C[C@@H]2CC3(CCN(C4CCCCCC4)CC3)c3ccccc3[C@@H]21 [Compound 29] , test system: UniProt P08173
OUT: < 2000 nM

IN: # lookup: UniProt P08173 EC50, key = c1ccc2c(c1)C1OCCC1CC21CCN(CC2CCCCC2)CC1 (stereo not shown)
OUT: < 2000 nM

IN: Name the recorded EC50 of "O=C1C[C@@H]2[C@H](N1)c1ccccc1C21CCN(C2CCCCC2)CC1" , assay system UniProt P08173.
OUT: < 2000 nM

###

biological target: M1 muscarinic receptor (Homo sapiens, UniProt P11229); assay: Functional mobilization of intracellular calcium (FLIPR), M1-CHO cells; details: CHO cells expressing M1, calcium mobilization
Sequence (P11229 whole entry): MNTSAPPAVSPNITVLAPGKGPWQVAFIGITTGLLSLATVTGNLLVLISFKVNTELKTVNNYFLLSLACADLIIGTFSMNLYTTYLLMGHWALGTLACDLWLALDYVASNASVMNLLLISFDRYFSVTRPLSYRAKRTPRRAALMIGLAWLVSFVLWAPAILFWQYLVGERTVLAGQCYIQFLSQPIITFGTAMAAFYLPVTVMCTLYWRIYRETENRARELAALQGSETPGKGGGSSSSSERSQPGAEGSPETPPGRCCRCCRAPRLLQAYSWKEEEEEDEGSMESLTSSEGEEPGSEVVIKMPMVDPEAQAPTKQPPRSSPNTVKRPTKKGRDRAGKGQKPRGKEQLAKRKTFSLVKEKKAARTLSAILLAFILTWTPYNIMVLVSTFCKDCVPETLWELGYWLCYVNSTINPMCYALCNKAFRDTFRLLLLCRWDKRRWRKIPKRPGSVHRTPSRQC
measured_endpoint: EC50

Examples with their reported EC50 follow.
In [3]: df
Out[3]:
                                   molecule  measured_endpoint  assay_value
0  CCOC(=O)N1CCC(N2CCC3(CC2)CC2CC(=O)OC2c2ccccc23)CC1 (stereo not shown) [Compound 4]               EC50       < 2 µM
1  O=C1C[C@@H]2[C@H](N1)c1ccccc1C21CCN(C2C[C@H]3CC[C@@H]2C3)CC1 (stereo partly shown) [Compound 32]               EC50    2 to 5 µM
2  CCOC(=O)N1CCC(N2CCC3(CC2)CC2CCOC2c2ccccc23)CC1 (stereo not shown) [Compound 2]               EC50       < 2 µM

IN: Note EC50 for the molecule shown: CN1C(=O)C[C@@H]2CC3(CCN(C4CCCCCC4)CC3)c3ccccc3[C@@H]21 [Compound 10]
OUT: 2 to 5 µM

###

EC50 overview
biological target: M1 muscarinic receptor (Homo sapiens, UniProt P11229); test: Functional mobilization of intracellular calcium (FLIPR), M1-CHO cells; conditions: CHO cells expressing M1, calcium mobilization

The following molecules have reported results that may help.
>>> print(df.to_string())
                                   molecule                              study_target  assay_value
0  O=C1C[C@@H]2[C@H](N1)c1ccccc1C21CCN(C2CCCCC2)CC1 [Compound 31]  M1 muscarinic receptor (Homo sapiens, UniProt P11229)    < 2000 nM
1  CCOC(=O)N1CCC(N2CCC3(CC2)C[C@H]2CC(=O)N[C@H]2c2ccccc23)CC1 [Compound 17]  M1 muscarinic receptor (Homo sapiens, UniProt P11229)    < 2000 nM
2  CN1C(=O)C[C@@H]2CC3(CCN(C4CCCCC4)CC3)c3ccccc3[C@@H]21 [Compound 23]  M1 muscarinic receptor (Homo sapiens, UniProt P11229)    < 2000 nM

IN: Give the reported value of EC50 for this record: O=C1CC2CC3(CCN(C4CC5CCC(C5)C4)CC3)c3ccccc3C2O1 (stereo not shown) [Compound 28]
OUT: < 2000 nM

IN: Query EC50 for O=C1CC2CC3(CCN(C4CCCCC4)CC3)c3ccccc3C2O1 (stereo not shown) [Compound 21]
OUT: < 2000 nM

IN: Write down EC50 measured for item O=C1CC2CC3(CCN(CC4CCCCC4)CC3)c3ccccc3C2O1 (stereo not shown) [Compound 18]
OUT: < 2000 nM

IN: Hello, please tell me recorded EC50 for this one: CN1C(=O)C[C@@H]2CC3(CCN(C4CC5CCC(C5)C4)CC3)c3ccccc3[C@@H]21 (stereo partly shown) [Compound 3]
OUT: < 2000 nM

IN: Report measured EC50; entry is O=C1C[C@@H]2CC3(CCN(C4CC5CCC(C5)C4)CC3)c3ccccc3[C@@H]2N1 (stereo partly shown) [Compound 5]
OUT: < 2000 nM

###

Overview of reported pEC50 across a group of compounds:
target: M2 muscarinic receptor (Homo sapiens, UniProt P08172); assay: Functional mobilization of intracellular calcium (FLIPR), M2-CHO cells; settings: CHO cells expressing M2, calcium mobilization
Sequence (P08172 whole entry): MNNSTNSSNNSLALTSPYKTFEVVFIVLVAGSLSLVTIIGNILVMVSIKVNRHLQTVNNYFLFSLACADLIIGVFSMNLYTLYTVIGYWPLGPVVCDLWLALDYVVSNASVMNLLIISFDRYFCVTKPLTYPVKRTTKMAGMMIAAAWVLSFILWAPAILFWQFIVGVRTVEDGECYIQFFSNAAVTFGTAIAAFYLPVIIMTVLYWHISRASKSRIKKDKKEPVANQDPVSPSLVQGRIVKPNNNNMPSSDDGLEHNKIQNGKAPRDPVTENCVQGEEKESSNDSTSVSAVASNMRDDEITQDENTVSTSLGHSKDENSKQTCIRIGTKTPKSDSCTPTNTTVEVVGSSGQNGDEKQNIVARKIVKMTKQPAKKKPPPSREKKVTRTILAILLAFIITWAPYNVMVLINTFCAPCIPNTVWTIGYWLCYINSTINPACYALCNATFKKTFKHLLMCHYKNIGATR
pEC50: −log10 of the molar value.

>>> df
                                   compound  measured_endpoint  assay_value
0  CCOC(=O)N1CCC(N2CCC3(CC2)C[C@H]2CC(=O)N(CC(=O)O)[C@H]2c2ccccc23)CC1              pEC50       < 5.30
1  CN1C(=O)C[C@@H]2CC3(CCN(C4CCCCCC4)CC3)c3ccccc3[C@@H]21 [Compound 29]              pEC50       > 5.70

IN: Give recorded pEC50. CCOC(=O)N1CCC(N2CCC3(CC2)C[C@H]2CC(=O)N[C@H]2c2ccccc23)CC1 [Compound 17]
OUT: > 5.70

IN: Quote pEC50 reported for CN1C(=O)C[C@@H]2CC3(CCN(C4CCCCCC4)CC3)c3ccccc3[C@@H]21 [Compound 10] please.
OUT: < 5.30
